# system: T1, human GPC3 (human, UniProt P51654 25-563)
# T1 construct: range 25-563; soluble analyte; also called soluble human GPC3; glypican 3
# T1 sequence (P51654 25-563 limits assumed): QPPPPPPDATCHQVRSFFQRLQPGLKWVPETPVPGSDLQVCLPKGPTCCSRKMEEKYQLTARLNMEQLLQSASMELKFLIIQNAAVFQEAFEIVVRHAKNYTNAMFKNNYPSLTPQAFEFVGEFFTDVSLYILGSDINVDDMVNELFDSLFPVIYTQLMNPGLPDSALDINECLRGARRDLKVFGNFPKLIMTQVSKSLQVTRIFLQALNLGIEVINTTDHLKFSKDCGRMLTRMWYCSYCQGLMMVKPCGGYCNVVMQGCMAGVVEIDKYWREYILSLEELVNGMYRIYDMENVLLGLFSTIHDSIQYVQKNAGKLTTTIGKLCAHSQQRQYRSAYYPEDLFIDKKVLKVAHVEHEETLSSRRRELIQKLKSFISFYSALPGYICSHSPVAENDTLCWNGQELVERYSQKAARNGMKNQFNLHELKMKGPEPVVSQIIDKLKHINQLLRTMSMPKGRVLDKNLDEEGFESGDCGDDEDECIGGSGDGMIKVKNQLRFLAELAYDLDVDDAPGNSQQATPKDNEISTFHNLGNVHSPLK
# method-summary: SPR
Note to self: use true only for Kd readings below 3 nM; a reading exactly at 3 nM still gets false.

>  <binder>
H0610-G1dh/none-Hi-Kn010G3/L0136-k0 (antibody, V domains shown, one-arm) VH: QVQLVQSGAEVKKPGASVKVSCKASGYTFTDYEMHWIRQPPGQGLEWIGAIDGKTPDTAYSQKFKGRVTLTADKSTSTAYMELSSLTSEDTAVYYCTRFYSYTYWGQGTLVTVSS VL: DIVMTQSPLSLPVTPGEPASISCRSSQSLVHSNRNTYLHWYQQKPGQAPRLLIYKVSNRFFGVPDRFSGSGSGTDFTLKISRVEAEDVGVYYCGQGTQVPYTFGQGTKLEIK

>  <category-label>
false

$$$$
>  <binder>
GCH055-G1dh/none-Hi-Kn010G3/L0000-k0 (antibody, V domains shown, one-arm) VH: QVQLVQSGAEVKKPGASVTVSCKASGYTFTDYEMHWIRQPPGEGLEWIGAIDGETPDTAYSDKFKGRVTLTADKSTSTAYMELSSLTSEDTAVYYCTRFYSYTYWGQGTLVTVSS VL: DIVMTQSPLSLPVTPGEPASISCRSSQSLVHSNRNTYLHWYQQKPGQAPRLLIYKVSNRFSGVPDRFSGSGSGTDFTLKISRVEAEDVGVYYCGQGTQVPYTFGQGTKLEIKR

>  <category-label>
false

$$$$
>  <binder>
GCH054-G1dh/none-Hi-Kn010G3/L0000-k0 (antibody, V domains shown, one-arm) VH: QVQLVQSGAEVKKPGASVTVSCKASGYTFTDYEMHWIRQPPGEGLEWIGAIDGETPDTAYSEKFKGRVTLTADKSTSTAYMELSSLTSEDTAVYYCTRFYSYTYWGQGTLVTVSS VL: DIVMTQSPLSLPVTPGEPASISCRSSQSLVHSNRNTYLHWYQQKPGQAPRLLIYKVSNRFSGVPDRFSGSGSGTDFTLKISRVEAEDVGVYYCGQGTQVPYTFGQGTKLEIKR

>  <category-label>
false

$$$$
>  <binder>
H0610-G1dh/none-Hi-Kn010G3/L0240-k0 (antibody, V domains shown, one-arm) VH: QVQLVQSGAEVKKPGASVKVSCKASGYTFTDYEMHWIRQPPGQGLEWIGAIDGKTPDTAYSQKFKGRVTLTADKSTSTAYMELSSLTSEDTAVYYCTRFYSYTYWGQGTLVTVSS VL: DIVMTQSPLSLPVTPGEPASISCRSSESPVHSNRNTYLHWYQQKPGQAPRLLIYKVSNRFSGVPDRFSGSGSGTDFTLKISRVEAEDVGVYYCYQGTQVPYTFGQGTKLEIK

>  <category-label>
true

$$$$
>  <binder>
GCH100-G1dh/none-Hi-Kn010G3/L0000-k0 (antibody, V domains shown, one-arm) VH: QVQLVQSGAEVKKPGASVTVSCKASGYTFTDYEMHWVRQAPGEGLEWMGAIDGYTPDTAYSEKFKGRVTLTADKSTSTAYMELSSLTSEDTAVYYCTRFYSYTYWGQGTLVTVSS VL: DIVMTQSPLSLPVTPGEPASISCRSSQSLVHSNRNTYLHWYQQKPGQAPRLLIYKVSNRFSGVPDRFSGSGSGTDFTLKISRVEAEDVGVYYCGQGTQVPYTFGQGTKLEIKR

>  <category-label>
false

$$$$
>  <binder>
H0610-G1dh/none-Hi-Kn010G3/L0234-k0 (antibody, V domains shown, one-arm) VH: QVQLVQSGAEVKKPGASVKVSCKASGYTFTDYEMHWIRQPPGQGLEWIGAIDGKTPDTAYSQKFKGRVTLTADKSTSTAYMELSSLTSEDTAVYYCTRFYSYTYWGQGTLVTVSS VL: DIVMTQSPLSLPVTPGEPASISCRSSQEPVHSNRNTYLHWYQQKPGQAPRLLIYKVSNRFRGVPDRFSGSGSGTDFTLKISRVEAEDVGVYYCGQGTQVPYTFGQGTKLEIK

>  <category-label>
true

$$$$
>  <binder>
GCH056-G1dh/none-Hi-Kn010G3/L0215-k0 (antibody, V domains shown, one-arm) VH: QVQLVQSGAEVKKPGASVTVSCKASGYTFTDYEMHWIRQPPGEGLEWIGAIDGETPDTAYSQKFEGRVTLTADKSTSTAYMELSSLTSEDTAVYYCTRFYSYTYWGQGTLVTVSS VL: DIVMTQSPLSLPVTPGEPASISCRSSQPPVHSNRNTYIHWYQQKPGQAPRLLIYKVSNRFSGVPDRFSGSGSGTDFTLKISRVEAEDVGVYYCGQGTQVPYTFGQGTKLEIK

>  <category-label>
true

$$$$
>  <binder>
H0610-G1dh/none-Hi-Kn010G3/L0180-k0 (antibody, V domains shown, one-arm) VH: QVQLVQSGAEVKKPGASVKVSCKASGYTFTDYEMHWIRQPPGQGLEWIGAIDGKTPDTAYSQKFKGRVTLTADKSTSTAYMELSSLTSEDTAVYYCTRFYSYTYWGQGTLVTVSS VL: DIVMTQSPLSLPVTPGEPASISCRSSQSLVHSNRNTYLHWYQQKPGQAPRLLIYKVSNRFSGVPDRFSGSGSGTDFTLKISRVEAEDVGVYYCGQGTQNPYTFGQGTKLEIK

>  <category-label>
false

$$$$
>  <binder>
H0610-G1dh/none-Hi-Kn010G3/L0011-k0 (antibody, V domains shown, one-arm) VH: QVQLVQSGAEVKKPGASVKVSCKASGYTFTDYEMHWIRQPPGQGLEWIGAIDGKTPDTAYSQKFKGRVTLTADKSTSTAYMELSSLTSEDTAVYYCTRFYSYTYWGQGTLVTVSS VL: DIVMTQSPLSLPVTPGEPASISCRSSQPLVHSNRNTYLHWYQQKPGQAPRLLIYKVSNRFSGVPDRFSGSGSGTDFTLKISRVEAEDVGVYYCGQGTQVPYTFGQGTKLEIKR

>  <category-label>
true

$$$$

FYI, the data here is from patent US20250066503A1.
